Biological target: BuChE (Equus caballus)
Construct: purchased Aladdin B128570-2KU; host or cells: equine serum
Sequence (P81908 whole entry): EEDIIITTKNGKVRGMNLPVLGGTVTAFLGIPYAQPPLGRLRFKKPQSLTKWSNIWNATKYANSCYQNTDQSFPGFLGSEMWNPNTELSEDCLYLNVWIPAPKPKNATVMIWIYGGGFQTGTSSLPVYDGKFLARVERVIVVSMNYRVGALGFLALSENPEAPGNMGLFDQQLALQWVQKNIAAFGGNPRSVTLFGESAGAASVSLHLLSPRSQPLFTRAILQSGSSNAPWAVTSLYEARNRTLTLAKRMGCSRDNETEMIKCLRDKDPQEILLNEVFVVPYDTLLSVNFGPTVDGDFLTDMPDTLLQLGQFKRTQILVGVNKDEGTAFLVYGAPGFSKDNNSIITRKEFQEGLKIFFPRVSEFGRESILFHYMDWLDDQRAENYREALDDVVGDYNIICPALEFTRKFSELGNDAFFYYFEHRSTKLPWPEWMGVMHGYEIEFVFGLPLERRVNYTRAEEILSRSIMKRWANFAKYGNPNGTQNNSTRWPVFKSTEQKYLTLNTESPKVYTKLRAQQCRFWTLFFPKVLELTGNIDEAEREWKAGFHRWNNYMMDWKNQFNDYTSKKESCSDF
Test: biochemical
Conditions: BuChE from equine serum; means ± SEM of three experiments; read-out: BuChE Inhibition, (IC50)
Measured endpoint: pIC50
To interpret pIC50, take it as minus log10 of a concentration measured in moles per litre.

query: Input COc1ccc(C2CC(=O)c3c(O)cc(OCC(=O)NCCc4ccccc4)cc3O2)cc1O (stereo not shown) [Compound 4k] , output reported pIC50.
result: 5.52

query: Input COc1ccc(C2CC(=O)c3c(O)cc(OCC(=O)NCCc4ccc(Br)cc4)cc3O2)cc1O (stereo not shown) [Compound 4n] , output reported pIC50.
result: 5.70

query: Input COc1ccc(C2CC(=O)c3c(O)cc(OCC(=O)NCc4ccccc4Cl)cc3O2)cc1O (stereo not shown) [Compound 4g] , output reported pIC50.
result: 5.79

query: Input COc1ccc(C2CC(=O)c3c(O)cc(OCC(=O)NCc4ccco4)cc3O2)cc1O (stereo not shown) [Compound 4t] , output reported pIC50.
result: 5.63

---

Target: AChE (Electrophorus electricus, UniProt O42275)
Construct: purchased Sigma-Aldrich C3389-2KU
Sequence (O42275 24-633): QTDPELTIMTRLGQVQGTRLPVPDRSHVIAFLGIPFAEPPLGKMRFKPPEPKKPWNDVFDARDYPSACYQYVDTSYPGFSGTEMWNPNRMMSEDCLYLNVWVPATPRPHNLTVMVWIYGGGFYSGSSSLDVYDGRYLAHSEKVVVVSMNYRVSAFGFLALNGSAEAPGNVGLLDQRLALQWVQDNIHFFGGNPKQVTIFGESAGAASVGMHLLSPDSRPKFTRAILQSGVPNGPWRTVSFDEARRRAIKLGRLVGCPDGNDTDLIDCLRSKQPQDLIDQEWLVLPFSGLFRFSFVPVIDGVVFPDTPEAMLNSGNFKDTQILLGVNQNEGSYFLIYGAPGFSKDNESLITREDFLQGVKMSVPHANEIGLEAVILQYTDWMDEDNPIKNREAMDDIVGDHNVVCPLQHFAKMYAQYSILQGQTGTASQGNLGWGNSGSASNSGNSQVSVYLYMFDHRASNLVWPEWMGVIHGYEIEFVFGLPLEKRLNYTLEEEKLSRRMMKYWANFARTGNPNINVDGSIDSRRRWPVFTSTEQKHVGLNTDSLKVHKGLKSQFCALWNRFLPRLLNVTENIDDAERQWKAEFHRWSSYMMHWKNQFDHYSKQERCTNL
Test: biochemical
Conditions: Selectivity Index = IC50 (BuChE)/IC50 (AChE)
Threshold check on Selective Index: at or above 200 gives 1.0, strictly below gives 0.0.

query: Decide: is the reported value of Selective Index for COc1ccc(C2CC(=O)c3c(O)cc(OCC(=O)NCc4ccc(Cl)cc4)cc3O2)cc1O (centres unmarked) equal to or greater than 200?
result: 1.0

query: Decide: is the reported value of Selective Index for COc1ccc(C2CC(=O)c3c(O)cc(OCC(=O)NCc4ccc(Br)cc4)cc3O2)cc1O (centres unmarked) equal to or greater than 200?
result: 0.0

query: Decide: is the reported value of Selective Index for COc1ccc(C2CC(=O)c3c(O)cc(OCC(=O)NCCc4ccc(Cl)cc4)cc3O2)cc1O (centres unmarked) equal to or greater than 200?
result: 1.0

query: Decide: is the reported value of Selective Index for COc1ccc(C2CC(=O)c3c(O)cc(OCC(=O)NCc4ccccc4F)cc3O2)cc1O (centres unmarked) equal to or greater than 200?
result: 0.0

---

Task for the reader: assign each of the following molecules its reported viability at 48 h, 50 µM.
Assay: in vitro
Details: human
Return type: number; implicit unit %.

query: Input COc1ccc(CCNC(=O)COc2cc(O)c3c(c2)OC(c2ccc(OC)c(O)c2)CC3=O)cc1 (stereo not shown) , output reported viability at 48 h, 50 µM.
result: 78.5

query: Input COc1ccc(C2CC(=O)c3c(O)cc(OCC(=O)NCc4ccncc4)cc3O2)cc1O (stereo not shown) , output reported viability at 48 h, 50 µM.
result: 78.7

query: Input COc1ccc(C2CC(=O)c3c(O)cc(OCC(=O)NCCc4ccccc4Cl)cc3O2)cc1O (stereo not shown) , output reported viability at 48 h, 50 µM.
result: 83.1

query: Input COc1cc(/C=C/C(=O)CC(=O)/C=C/c2ccc(O)c(OC)c2)ccc1O [Curcumin, curcumin, reference compound] , output reported viability at 48 h, 50 µM.
result: 82.1

---

Target: AChE (Electrophorus electricus, UniProt O42275)
Construct: purchased Sigma-Aldrich C3389-2KU
Assay: biochemical
Details: Selectivity Index = IC50 (BuChE)/IC50 (AChE)
Task for the reader: assign each of the following compounds its reported Selective Index.
Lab note: record just the number, no unit beside it.

query: Input COc1ccc(C2CC(=O)c3c(O)cc(OCC(=O)NCCc4ccc(F)cc4)cc3O2)cc1O (stereo not shown) , output reported Selective Index.
result: 167

query: Input COc1ccc(C2CC(=O)c3c(O)cc(OCC(=O)NCc4ccncc4)cc3O2)cc1O (stereo not shown) , output reported Selective Index.
result: 68

query: Input COc1cccc(CNC(=O)COc2cc(O)c3c(c2)OC(c2ccc(OC)c(O)c2)CC3=O)c1 (stereo not shown) , output reported Selective Index.
result: 110

query: Input COc1ccc(C2CC(=O)c3c(O)cc(OCC(=O)NCc4ccco4)cc3O2)cc1O (stereo not shown) , output reported Selective Index.
result: 77

query: Input COc1ccc(C2CC(=O)c3c(O)cc(OCC(=O)NCCc4cccc(Cl)c4)cc3O2)cc1O (stereo not shown) , output reported Selective Index.
result: 188

query: Input COc1ccc(C2CC(=O)c3c(O)cc(OCC(=O)NCc4ccccc4)cc3O2)cc1O (stereo not shown) , output reported Selective Index.
result: 133

query: Input COc1ccc(C2CC(=O)c3c(O)cc(OCC(=O)NCCc4ccc(Br)cc4)cc3O2)cc1O (stereo not shown) , output reported Selective Index.
result: 115

query: Input COc1ccc(CNC(=O)COc2cc(O)c3c(c2)OC(c2ccc(OC)c(O)c2)CC3=O)cc1 (stereo not shown) , output reported Selective Index.
result: 179

query: Input COc1ccc(CCNC(=O)COc2cc(O)c3c(c2)OC(c2ccc(OC)c(O)c2)CC3=O)cc1 (stereo not shown) , output reported Selective Index.
result: 143

query: Input COc1ccc(C2CC(=O)c3c(O)cc(OCC(=O)NCc4ccc(F)cc4)cc3O2)cc1O (stereo not shown) , output reported Selective Index.
result: 167

query: Input COc1ccc(C2CC(=O)c3c(O)cc(OCC(=O)NCCc4ccccc4)cc3O2)cc1O (stereo not shown) , output reported Selective Index.
result: 254

query: Input COc1ccc(C2CC(=O)c3c(O)cc(OCC(=O)NCc4ccccc4OC)cc3O2)cc1O (stereo not shown) , output reported Selective Index.
result: 103

query: Input COc1ccc([C@@H]2CC(=O)c3c(O)cc(OCC(=O)NCc4ccc(C(F)(F)F)cc4)cc3O2)cc1O , output reported Selective Index.
result: 305

query: Input COc1ccc(C2CC(=O)c3c(O)cc(OCC(=O)NCc4ccccc4Cl)cc3O2)cc1O (stereo not shown) , output reported Selective Index.
result: 116

query: Input COc1ccc(C2CC(=O)c3c(O)cc(OCC(=O)NCCc4ccccc4F)cc3O2)cc1O (stereo not shown) , output reported Selective Index.
result: 111

query: Input COc1ccc([C@@H]2CC(=O)c3c(O)cc(O)cc3O2)cc1O , output reported Selective Index.
result: 3
